Target: APJ Receptor (Homo sapiens, UniProt P35414)
Sequence (P35414 1-380): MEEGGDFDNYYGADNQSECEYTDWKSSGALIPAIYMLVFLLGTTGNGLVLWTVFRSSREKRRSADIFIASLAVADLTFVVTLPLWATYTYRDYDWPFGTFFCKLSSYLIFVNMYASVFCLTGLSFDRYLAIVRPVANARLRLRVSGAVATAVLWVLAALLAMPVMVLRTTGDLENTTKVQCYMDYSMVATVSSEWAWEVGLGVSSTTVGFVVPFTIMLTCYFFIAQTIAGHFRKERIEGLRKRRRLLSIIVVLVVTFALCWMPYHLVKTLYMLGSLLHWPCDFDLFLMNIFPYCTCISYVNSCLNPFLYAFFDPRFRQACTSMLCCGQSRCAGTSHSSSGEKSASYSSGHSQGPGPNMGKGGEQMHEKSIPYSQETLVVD
Test: APJ cAMP assay (DiscoverX enzyme fragment complementation; inhibition of forskolin-stimulated cAMP)
Details: CHO-K1 cell line stably expressing the APJ Receptor; EC80 forskolin; 30 minutes at 37° C.; read-out: Potency Range (APJ cAMP EC50)
pEC50: −log10 of the molar value.
For each entry below, report its pEC50 value.

CCOc1cccc(-c2nc3ncc(NS(=O)(=O)[C@H]4C[C@@H](O)C4)nc3n2-c2c(OC)cccc2OC)n1 :: 7.00 to 9.00
CCOc1cccc(-c2nc3ncc(NS(C)(=O)=O)cc3n2-c2c(OC)cccc2OC)n1 :: 7.00 to 9.00

Tell me the measured pEC50 of CCOc1cccc(-c2nc3ncc(NS(=O)(=O)CCC4CC4)nc3n2-c2c(OC)cccc2OC)n1 , please.
> 9.00
